Listed below: protein stability index values for each entry.
B1: LARP4 (parent)
chain: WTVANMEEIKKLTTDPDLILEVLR

variants of: B1; experiment: protein stability index of a GFP-peptide fusion (GPS, HEK-293T) (PSI 1-6); higher = more stable; conditions: c terminus: a fixed tail appended;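 also: lentivirally expressed fusions sorted by FACS into six bins by GFP to DsRed ratio, PSI derived from sequencing read proportions per bin multiplied by bin number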
readoutLabel: protein stability index

1. N5G
1.64
2. P16A
1.55
3. D15I
1.18
4. P16K
1.59
5. L12Q
3.09
6. T14F
1.39
7. M6W
1.89
8. L23I
2.65
9. N5C
2.04
10. D15G
2.05
11. L18G
2.95
12. E7F
2.55
13. V3F
2.32
14. T2S
2.58
15. I9Y
2.31
16. L18T
2.26
